tested on: Haemonchus contortus; test: In-vivo test in Mongolian gerbils using peroral application; settings: dose 0.32 mg/kg, H. contortus
efficacy (% reduction of the number of worms): recorded values
observed.property: efficacy (% reduction of the number of worms) (%)

{"molecule": "CC(C#N)(COc1cc(C#N)ccc1Oc1ccc(OC(F)(F)F)cc1Cl)NC(=O)c1ccc(S(=O)(=O)C(F)(F)F)cc1 (racemic)", "units": "%", "numeric.result": 98}
{"molecule": "CC(C#N)(COc1cc(C#N)ccc1Oc1ccc(OC(F)(F)F)cc1Cl)NC(=O)c1ccc(SC(F)(F)F)cc1 (racemic)", "units": "%", "numeric.result": 100}
{"molecule": "CC(C#N)(COc1cc(C#N)ccc1Oc1ccc(OC(F)(F)F)cc1Cl)NC(=O)c1ccc(OC(F)(F)F)cc1 (racemic)", "units": "%", "numeric.result": 100}
{"molecule": "C[C@@](C#N)(COc1cc(C#N)ccc1Oc1ccc(OC(F)(F)F)cc1Cl)NC(=O)c1ccc(OC(F)(F)F)cc1", "units": "%", "numeric.result": 100}
